# assay notes: Cytotoxicity against human PC-3MIE8 cells after 48 hrs by MTT assay
# Assay type: functional, cell-based
# reported conditions: PC-3MIE8, 48 h
assay metric: IC50

line notation: CC(=O)O[C@H]1CC[C@@]2(C)[C@@H](CC[C@]3(C)\C(=C(C)/C=C/C=C(\C)c4ccc(C)c(=O)o4)C(=O)C[C@@H]23)C1(C)C
IC50: 3.1 µg/mL

line notation: CC(/C=C/C=C(C)/C=C/C=C(\C)C(=O)O)=C1/C(=O)C[C@H]2[C@@]3(C)CCC(=O)C(C)(C)[C@@H]3CC[C@]12C
IC50: > 5 µg/mL

line notation: CC(=O)/C=C\C(=O)/C(C)=C/C=C/C(C)=C1/C(=O)C[C@H]2[C@@]3(C)CCC(=O)C(C)(C)[C@@H]3CC[C@]12C
IC50: > 5 µg/mL

line notation: C\C(=C/C=C/C(C)=C1/C(=O)C[C@H]2[C@@]3(C)CCC(=O)C(C)(C)[C@@H]3CC[C@]12C)c1ccc(C)c(=O)o1
IC50: > 5 µg/mL

GET /values?readout=IC50&item= COC(=O)/C(C)=C/C=C/C(C)=C/C=C/C(C)=C1/C(=O)C[C@H]2[C@@]3(C)CCC(=O)C(C)(C)[C@@H]3CC[C@]12C
> 5 µg/mL

GET /values?readout=IC50&item= CC(=O)/C=C/C(=O)/C(C)=C/C=C/C(C)=C1\C(=O)C[C@H]2[C@@]3(C)CC[C@H](OC(C)=O)C(C)(C)[C@@H]3CC[C@]12C
> 5 µg/mL
